All values here come from patent US20180177842A1.

biological target: T1, P3028 (VFDEFKPLVEEPQNLIK, SEQ ID NO: 185), His-tagged (human); experiment: PEPSCAN ELISA; peptide on chip, His-P3028 added;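 note: peroxidase color development with ABTS and H2O2 substrate, OD405 imaged by CCD camera with image processing and taken as raw values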
T1 construct: Synthetic fragment of human serum albumin (positions 397-413); used in solution as His-tagged peptide PGE73; also called PGE73; not shown: His-tag
T1 peptide: VFDEFKPLVEEPQNLIK
For each entry below, report its RAMPO Score value.
All answers are understood in rampo units, so give the number only.

[in] Requested field: RAMPO Score. Item: KKLDTFFLKLSLFTER [KKLDTFFLKLSLFTER (SEQ ID NO: 328)]
[out] 411

[in] Entry to check: RKLDTFFVKLSLFTER [RKLDTFFVKLSLFTER (SEQ ID NO: 279)]
[out] 523

[in] Entry to check: KKYDTFFVKLSLFTER [KKYDTFFVKLSLFTER (SEQ ID NO: 452)]
[out] 344

[in] Entry to check: KKLWTFFVKLSLFTER [KKLWTFFVKLSLFTER (SEQ ID NO: 302)]
[out] 443

[in] Entry to check: KKLDTFFVKLSLFSER [KKLDTFFVKLSLFSER (SEQ ID NO: 384)]
[out] 369

[in] Entry to check: KKLDTFFVKLILFTER [KKLDTFFVKLILFTER (SEQ ID NO: 505)]
[out] 289

[in] Entry to check: KKCDTFFVKLSLFTER [KKCDTFFVKLSLFTER (SEQ ID NO: 283)]
[out] 432

[in] Entry to check: KKLDTFFVKLCLFTER [KKLDTFFVKLCLFTER (SEQ ID NO: 457)]
[out] 341

[in] Entry to check: KKLDTFFVWLSLFTER [KKLDTFFVWLSLFTER (SEQ ID NO: 526)]
[out] 245

[in] Entry to check: KKLDTFLVKLSLFTER [KKLDTFLVKLSLFTER (SEQ ID NO: 320)]
[out] 517

[in] Entry to check: KKLDTFFVKLKLFTER [KKLDTFFVKLKLFTER (SEQ ID NO: 473)]
[out] 323

[in] Entry to check: KKMDTFFVKLSLFTER [KKMDTFFVKLSLFTER (SEQ ID NO: 291)]
[out] 460

[in] Entry to check: KKLDTFFVKLSLFTPR [KKLDTFFVKLSLFTPR (SEQ ID NO: 439)]
[out] 351

[in] Entry to check: KKLPTFFVKLSLFTER [KKLPTFFVKLSLFTER (SEQ ID NO: 435)]
[out] 364

[in] Entry to check: KKLFTFFVKLSLFTER [KKLFTFFVKLSLFTER (SEQ ID NO: 426)]
[out] 380

[in] Entry to check: KTLDTFFVKLSLFTER [KTLDTFFVKLSLFTER (SEQ ID NO: 468)]
[out] 331

[in] Entry to check: NKLDTFFVKLSLFTER [NKLDTFFVKLSLFTER (SEQ ID NO: 276)]
[out] 445

[in] Entry to check: KKLDTFFVKLSLVTER [KKLDTFFVKLSLVTER (SEQ ID NO: 374)]
[out] 446

[in] Entry to check: KLLDTFFVKLSLFTER [KLLDTFFVKLSLFTER (SEQ ID NO: 454)]
[out] 343

[in] Entry to check: KKLDTFHVKLSLFTER [KKLDTFHVKLSLFTER (SEQ ID NO: 433)]
[out] 364

[in] Entry to check: KKLDAFFVKLSLFTER [KKLDAFFVKLSLFTER (SEQ ID NO: 447)]
[out] 346

[in] Entry to check: KKLDTFFTKLSLFTER [KKLDTFFTKLSLFTER (SEQ ID NO: 496)]
[out] 298

[in] Entry to check: KKLDLFFVKLSLFTER [KKLDLFFVKLSLFTER (SEQ ID NO: 484)]
[out] 311

[in] Entry to check: KILDTFFVKLSLFTER [KILDTFFVKLSLFTER (SEQ ID NO: 467)]
[out] 331
